- assay_remarks: NCI Yeast Anticancer Drug Screen. Data for the mec2-1 strain (AID 157)
- measurement_setup: S. cerevisiae mec2-1 strain, at 50.0 µM
About 79,000 compounds went through this panel and 15% of them were active in at least one assay; those are over-represented in the sample as a whole. Activity calls are given as the source filed them. No stated cut-off is given here; in the data, active means growth inhibition above about 70%; inactive means the rest.
Allowed answers: True = active, False = inactive

Cc1ccc([P+](CCN2C(=O)c3ccccc3C2=O)(c2ccc(C)cc2)c2ccc(C)cc2)cc1 ... True
CN1CC[C@@H](c2ccccc2)[C@@H](O)C1 ... False
CN1CCN(CCn2c3c4ccccc4ccc3c3oc(=O)c4ccccc4c32)CC1 ... True
CC1OC(Oc2c(-c3ccc(O)c(O)c3O)oc3cc(O)ccc3c2=O)C(O)C(O)C1O (stereo not given) ... False

Which outcome did this test record for the compound CN1C(=O)OC(C)(c2ccccc2)C1=O (stereo not given) ?
False

###

- assay_remarks: NCI Yeast Anticancer Drug Screen. Data for the bub3 strain (AID 167)
- measurement_setup: S. cerevisiae bub3 mutant strain, at 50.0 µM (retest, dose inferred, filed as 5.0), active compounds read high
About 79,000 compounds went through this panel and 15% of them were active in at least one assay; those are over-represented in the sample as a whole.
Listed next: entries and their corresponding growth inhibition.
Field format: number, assumed %, no unit text.

Cc1cc(NC(=S)SCc2ccc(F)cc2)c([N+](=O)[O-])cc1C ... 92
Cc1ccc(C(=O)CCCN2CCOCC2)c(C)c1 ... 69
CC1=C(C)C1[N+](=O)[O-] ... 97
Clc1ccc2nc(Cl)c(Cl)nc2c1 ... 44
CCCc1nc2c(nc1C)C(=O)C=CC2=O ... 96

Data request, read-out growth inhibition, for O=C1c2ccccc2SCC12OC2c1ccc(Cl)cc1 (stereo not drawn)
91

Now the compound CC1=C[P+](c2ccccc2)(c2ccccc2)C=C(c2ccccc2)O1
97

Now the compound CSc1nnc(CCC(=O)Nc2c(C)cccc2C(C)(C)C)o1
7

Now the compound O=[N+]([O-])C1CCCC(C2=CSC3CCCCC3N2)C1 (stereo not drawn)
29

Now the compound O=C1OC(c2ccc3c(c2)OCO3)Sc2ccccc21 (stereo not drawn)
52

Now the compound C=CCCCCCCCCC(=O)OCC=C
-4

Now the compound Clc1ccc(Oc2nc(Cl)nc3[nH]ncc23)cc1
37

Now the compound CCCCCCCCCCCCNc1ccccn1
99

###

Listed next: entries and their corresponding growth inhibition.
- assay_remarks: NCI Yeast Anticancer Drug Screen. Data for the mlh1 rad18 strain (AID 175)
- measurement_setup: S. cerevisiae mlh1 rad18 strain growth inhibition; at 50.0 µM (retest, dose inferred, filed as 5.0); active compounds read high
Compounds without any hit were thinned out: in the full panel of roughly 79,000, 15% have a hit.
Field format: number, assumed %, no unit text.

Worked set:
Oc1c(Cl)cc(C(c2cc(Cl)c(O)c(Cl)c2)C(c2cc(Cl)c(O)c(Cl)c2)c2cc(Cl)c(O)c(Cl)c2)cc1Cl ... 98
S=C(Nc1cc(Cl)c(Cl)cc1Cl)SCc1ccccc1 ... 99
OC1c2cccn2-c2cc(Cl)ccc2SC1c1ccccc1 (stereo not given) ... 97
O=c1[nH]c(Cc2ccccc2)nc2c1sc1nc3ccccc3n12 ... 83

Please turn your attention to the following entry.
Data request, read-out growth inhibition, for CC(C)C[P+](c1ccccc1)(c1ccccc1)c1ccccc1
45
